- measured.target: Mdm2 (1-125) (Homo sapiens, UniProt Q00987)
- Construct: Purified MDM2 (1-125) protein was titrated against 50 nM carboxyfluorescein (FAM)-labeled; GST (N, cleaved yes); made in house; host or cells: E. coli BL21 DE3 (pGEX-6P-1)
- Sequence (Q00987 1-125): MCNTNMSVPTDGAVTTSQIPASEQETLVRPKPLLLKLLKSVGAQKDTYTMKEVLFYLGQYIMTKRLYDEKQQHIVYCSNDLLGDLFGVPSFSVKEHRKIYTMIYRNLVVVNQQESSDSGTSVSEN
- protocol.description: Mdm2 competitive fluorescence anisotropy assay (FAM-labeled 12/1 peptide displacement); further: 250 nM MDM2
- Assay type: binding
- conditions.used: read-out: Kd (apparent dissociation constant, competitive fluorescence anisotropy)
Positions of bridges follow the written chain, without caps; N, C: chain ends. Non-standard residues stand in square brackets, D forms with d. Residues, ends and D or L forms follow the SMILES beside them. R8 = C=CCCCCCC[C@@](C)(N)C(=O)O; S5 = C=CCCC[C@](C)(N)C(=O)O
# pKd listing for each entry below
Schema: pKd number; meaning minus log10 of the concentration expressed in molar units.

compound	pKd
CC(=O)N[C@H](C(=O)N[C@@H](CO)C(=O)N[C@@H](Cc1ccccc1)C(=O)N[C@]1(C)CCCCCCC=CCCC[C@@](C)(C(=O)N[C@@H](CCC(=O)O)C(=O)N[C@@H](CC(N)=O)C(=O)N[C@@H](Cc2ccc(O)cc2)C(N)=O)NC(=O)[C@H](CC(C)C)NC(=O)[C@H](CC(C)C)NC(=O)[C@H](C)NC(=O)[C@H](Cc2c[nH]c3ccccc23)NC(=O)[C@H](Cc2ccc(O)cc2)NC(=O)[C@H](CCC(=O)O)NC1=O)[C@@H](C)O	7.64
CC(C)C[C@@H]1NC(=O)[C@H](C)NC(=O)[C@H](Cc2c[nH]c3ccccc23)NC(=O)[C@H](Cc2ccc(O)cc2)NC(=O)[C@H](CCC(=O)O)NC(=O)[C@](C)(NC(=O)[C@H](Cc2ccccc2)NC(=O)[C@H](CO)NC(=O)[C@@H](NC(=O)CCCCCNC(=O)CCCC[C@@H]2SC[C@@H]3NC(=O)N[C@@H]32)[C@@H](C)O)CCCCCCC=CCCC[C@@](C)(C(N)=O)NC(=O)[C@H](CC(C)C)NC1=O	7.00
CC(=O)N[C@@H](Cc1c[nH]cn1)C(=O)N[C@@H](Cc1c[nH]cn1)C(=O)N[C@@H](Cc1c[nH]cn1)C(=O)NCCCCCC(=O)N[C@H](C(=O)N[C@@H](CO)C(=O)N[C@@H](Cc1ccccc1)C(=O)N[C@]1(C)CCCCCCC=CCCC[C@@](C)(C(N)=O)NC(=O)[C@H](CC(C)C)NC(=O)[C@H](CC(C)C)NC(=O)[C@H](C)NC(=O)[C@H](Cc2c[nH]c3ccccc23)NC(=O)[C@H](Cc2ccc(O)cc2)NC(=O)[C@H](CCC(=O)O)NC1=O)[C@@H](C)O	6.89
CC(C)C[C@@H]1NC(=O)[C@H](C)NC(=O)[C@H](Cc2c[nH]c3ccccc23)NC(=O)[C@H](Cc2ccc(O)cc2)NC(=O)[C@H](CCC(=O)O)NC(=O)[C@](C)(NC(=O)[C@H](Cc2ccccc2)NC(=O)[C@H](CO)NC(=O)[C@@H](NC(=O)CCCCCNC(=O)CCCC[C@@H]2SC[C@@H]3NC(=O)N[C@@H]32)[C@@H](C)O)CCCCCCC=CCCC[C@@](C)(C(=O)N[C@@H](CCC(=O)O)C(=O)N[C@@H](CC(N)=O)C(=O)N[C@@H](Cc2ccc(O)cc2)C(N)=O)NC(=O)[C@H](CC(C)C)NC1=O	7.34
CC(=O)N[C@@H](CC(C)C)C(=O)N[C@H](C(=O)N[C@@H](Cc1ccccc1)C(=O)N[C@]1(C)CCCCCCC=CCCC[C@@](C)(C(=O)N[C@@H](CCC(=O)O)C(=O)N[C@@H](CC(N)=O)C(=O)N[C@@H](Cc2ccccc2)C(N)=O)NC(=O)[C@H](CC(C)C)NC(=O)[C@H](CC(C)C)NC(=O)[C@H](C)NC(=O)[C@H](Cc2c[nH]c3ccccc23)NC(=O)[C@H](Cc2ccc(O)cc2)NC(=O)[C@H](CCC(=O)O)NC1=O)[C@@H](C)O [VIP-120] (Ac-LTF[R8]EYWALL[S5]ENF-NH2; staple 4-11)	8.74
CC(=O)N[C@@H](CCCNC(=N)N)C(=O)NCCCCCC(=O)N[C@H](C(=O)N[C@@H](CO)C(=O)N[C@@H](Cc1ccccc1)C(=O)N[C@]1(C)CCCCCCC=CCCC[C@@](C)(C(=O)N[C@@H](CCC(=O)O)C(=O)N[C@@H](CC(N)=O)C(=O)N[C@@H](Cc2ccccc2)C(N)=O)NC(=O)[C@H](CC(C)C)NC(=O)[C@H](CC(C)C)NC(=O)[C@H](C)NC(=O)[C@H](Cc2c[nH]c3ccccc23)NC(=O)[C@H](Cc2ccc(O)cc2)NC(=O)[C@H](CCC(=O)O)NC1=O)[C@@H](C)O	7.40

Query: I'd like to know its pKd. The compound in question is CC(=O)N[C@@H](CCCNC(=N)N)C(=O)N[C@@H](CCCNC(=N)N)C(=O)N[C@@H](CCCNC(=N)N)C(=O)NCCCCCC(=O)N[C@H](C(=O)N[C@@H](CO)C(=O)N[C@@H](Cc1ccccc1)C(=O)N[C@]1(C)CCCCCCC=CCCC[C@@](C)(C(N)=O)NC(=O)[C@H](CC(C)C)NC(=O)[C@H](CC(C)C)NC(=O)[C@H](C)NC(=O)[C@H](Cc2c[nH]c3ccccc23)NC(=O)[C@H](Cc2ccc(O)cc2)NC(=O)[C@H](CCC(=O)O)NC1=O)[C@@H](C)O
Reply: 7.10
